Each item that follows carries a reported cytotoxicity at 70.5 h.
# assay overview: Human HepG2 cell viability assay in 384 well format
# Format: toxicity, cell-based
# Parameters: dose 125 nL, time 70.5 hour; concentration not given beside the values
# measurement parameters: HepG2 cells, read-out: Inhibition
measured quantity: cytotoxicity at 70.5 h (%)

molecule | reported measurement
O=C(NCC1CC1)Nc1ccc(OCC(F)(F)F)nc1 | -9.95
O=C(NC1CC1)c1cc2c(nc1O)CC(c1cccs1)CC2=O (stereo not drawn) | -11.9
Cc1n[nH]c(C2CN(C(=O)c3cnc[nH]3)CCO2)n1 (stereo not drawn) | -11.1
c1cc(CN2CC[C@@H]3CN(c4cnccn4)C[C@@H]3C2)ccn1 | -3.4
Cc1nc(CN2CCc3ccc(S(N)(=O)=O)cc32)oc1C | 0.0206
COc1ccccc1OCC(=O)Nc1ncccc1OC(F)F | -7.67
O=C(CCc1ccc(Cl)s1)N1CCC(N2CCNC2=O)CC1 | -3.74
Cc1cc(N2CCC(NS(C)(=O)=O)CC2)nc(C(C)C)n1 | -4.49
CCCN1C[C@H]2CC[C@@H]1CN(C(=O)c1ccc(N(C)CCO)cc1)C2 | 1.16
COc1ccc(NC(=O)c2ccoc2C)c(N2CCN(C(C)=O)CC2)n1 | -14.1
O=C1CC(c2ccc(C(F)(F)F)cc2)c2snc(C(=O)O)c2N1 (stereo not drawn) | -15.6
N#Cc1c(Cl)nsc1NCc1ccc(N2CCSCC2)cc1 | 12.7
O=C1NCCN1C1CCCN(Cc2nnc(-c3ccc(F)cc3)o2)C1 (stereo not drawn) | -21.9
Cc1noc(C2CCN(C(=O)C3CCCO3)CC2)n1 (stereo not drawn) | -9.25
COc1ccccc1Oc1ncccc1CNC(=O)[C@@H](N)CCO | 8.7
CCc1ccccc1NCc1nc2[nH]c(C)c(C)c(=O)n2n1 | 10.8
O=C(Cc1c[nH]c2ccccc12)N1CCN(C(=O)c2ccoc2)CC1 | 1.6
CCCc1nnc(NC(=O)N2CCCC(NC(C)=O)C2)s1 (stereo not drawn) | -4.43
CC(C)C(C(=O)O)c1cccc(Cl)c1 (stereo not drawn) | -7.66
c1cnnc(N2CCCC(NCc3ccc(-n4cncn4)cc3)C2)c1 (stereo not drawn) | -3.17
COCC(=O)N[C@H]1C[C@@H](C(=O)NCCc2cccc(Cl)c2)N(C)C1 | -13.3
Cc1ccc(C(=O)Nc2cnn(CC(=O)NC3CCCC3)c2)c(=O)[nH]1 | -3.7
COCCN1CCCC12CCCN(c1nncs1)C2 (stereo not drawn) | -8.64
Cc1ccc(C(=O)NS(=O)(=O)c2cc(Cl)ccc2Cl)c(=O)[nH]1 | -1.03
CCN(C(=O)CSc1ccc(C(F)(F)F)cn1)C1CC1 | 7.64
O=C(Cc1cccnc1)N1CCC(OCc2ccccc2)CC1 | -11.4
Cc1cccc(CN2CC[C@@H]3O[C@@H](C(=O)N4CCN(C)CC4)C[C@@H]32)n1 | -1.64
CCCC(=O)NC1CCCN(C(=O)c2ccc(C)nc2)C1 (stereo not drawn) | 14.6
CCN(CC(=O)NC(C)C)C(=O)C(C)(C)c1ccc2c(c1)OCCO2 | -8.1
Cc1ccc(C(C(=O)O)N(C)CCCN2CCOCC2)c(C)c1 (stereo not drawn) | -8.61
CCn1cncc1C1CC(=O)Nc2c1c(C)nn2-c1ccc(C)cc1 (stereo not drawn) | 1.51
O=C(Cc1cc2c(cc1Cl)OCCO2)N1CC[C@H](CO)[C@H](O)C1 | -5.99
Cc1n[nH]c(C)c1NC(=O)CN1CCCC(CNC(=O)C(C)(C)C)C1 (stereo not drawn) | 2.09
CNC(=O)c1ccc(OC2CCN(S(C)(=O)=O)CC2)c(Cl)c1 | 3.83
CCc1sc(-c2nnc(CNCCn3cc(C)cn3)o2)cc1C | -1.42
CCOc1cccc(CNc2ccccc2C(F)(F)F)c1O | 13.7
COc1ccc(CNC(=O)NCCc2nc(C)c(C)s2)cn1 | -3.08
CCCn1nc(C)c(CN2CC3(CCOC3)CCC2=O)c1C (stereo not drawn) | -8.62
